Provenance of the data: patent US11254668B2

target-system: JAK3 (Homo sapiens (Human), UniProt P52333)
Sequence (P52333 822-1111): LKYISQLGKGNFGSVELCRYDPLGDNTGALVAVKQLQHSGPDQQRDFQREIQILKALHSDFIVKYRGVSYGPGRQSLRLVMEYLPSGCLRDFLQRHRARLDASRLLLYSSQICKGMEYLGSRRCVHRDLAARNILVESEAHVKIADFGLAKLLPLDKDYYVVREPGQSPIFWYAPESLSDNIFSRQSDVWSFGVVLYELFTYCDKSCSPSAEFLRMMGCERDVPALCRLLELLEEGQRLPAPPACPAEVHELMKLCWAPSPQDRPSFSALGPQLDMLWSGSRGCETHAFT
experiment: JAK Caliper Enzyme Assay at 1 mM ATP, JAK3
Format: biochemical
Method: Compounds of the invention were evaluated by in vitro methods to determine their respective ability to inhibit the JAK kinases (TYK2, JAK1, JAK2, JAK3). The human JAK inhibitory activity was determined by using a microfluidic assay to monitor phosphorylation of a synthetic peptide by the recombinant human kinase domain of each of the four members of the JAK family, JAK1, JAK2, JAK3 and TYK2. […]
pIC50: −log10 of the molar value.
endpoint: pIC50

Reference set, count: 5
• Cc1cc(-c2cc3ncccc3c(-c3ccn(C4(CC#N)CN(S(C)(=O)=O)C4)n3)n2)cnc1N = < 5.00
• N#CC[C@]1(n2cc(-c3cc(-c4cn[nH]c4N)cc4ncccc34)cn2)C[C@H](C#N)C1 = < 5.00
• CCOC(=O)Nc1cncc(-c2cc3ncccc3c(-c3ccn(C4(CC#N)CN(S(C)(=O)=O)C4)n3)n2)c1 = < 5.00
• N#CC[C@]1(n2ccc(-c3nc(-c4cn[nH]c4CO)cc4ncccc34)n2)C[C@H](C#N)C1 = < 5.00
• N#CC[C@]1(n2ccc(-c3nc(-c4ccc(N)nc4)cc4ncccc34)n2)C[C@H](C#N)C1 = < 5.00

Please supply pIC50 for each of the following items, keeping them in order.
1. Cc1n[nH]cc1-c1cc2ncccc2c(-c2ccn(C3(CC#N)CN(S(C)(=O)=O)C3)n2)n1
2. N#CC[C@]1(n2cc(-c3nc(-c4cnn(CCO)c4)cc4ncccc34)cn2)C[C@H](C#N)C1
3. N#CC[C@]1(n2ccc(-c3nc(-c4c[nH]nc4N)cc4ncccc34)n2)C[C@H](C#N)C1
4. CS(=O)(=O)Nc1ccc(-c2cc3ncccc3c(-c3ccn([C@]4(CC#N)C[C@H](C#N)C4)n3)n2)cc1

["< 5.00", "< 5.00", 5.28, 5.19]

====

target-system: JAK3 (Homo sapiens (Human), UniProt P52333)
experiment: JAK Caliper Enzyme Assay at 1 mM ATP, JAK3
Format: biochemical
Could you please report measured pIC50 for the items listed next?
Numbers only, as −log10 of the molar value.

Some solved entries appear below for comparison.
- Cc1cc(-c2cc3ncccc3c(-c3ccn([C@]4(CC#N)C[C@H](C#N)C4)n3)n2)n[nH]1: 5.54
- N#CC[C@]1(n2ccc(-c3nc(-c4cc(CO)[nH]n4)cc4ncccc34)n2)C[C@@H](C#N)C1: 5.64

Consider now this further compound.
For "Cn1cc(-c2cc3ncccc3c(-c3ccn([C@]4(CC#N)C[C@@H](C#N)C4)n3)n2)cn1" , what is its reported pIC50?
5.02

====

Provide the recorded log10 of IC50 for the entries that follow.
target-system: JAK2 (Homo sapiens (Human), UniProt O60674)
Sequence (O60674 849-1124): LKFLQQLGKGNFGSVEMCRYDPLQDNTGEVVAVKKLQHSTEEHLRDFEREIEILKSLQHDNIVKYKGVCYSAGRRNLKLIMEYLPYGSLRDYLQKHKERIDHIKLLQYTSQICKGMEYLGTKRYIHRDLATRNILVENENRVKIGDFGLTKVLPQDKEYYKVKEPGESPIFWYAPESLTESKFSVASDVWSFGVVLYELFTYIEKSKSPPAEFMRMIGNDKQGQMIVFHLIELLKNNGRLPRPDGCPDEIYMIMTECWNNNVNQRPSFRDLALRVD
experiment: JAK Caliper Enzyme Assay at 1 mM ATP, JAK2
Type: biochemical
condition-description: JAK Caliper enzyme assay
Base-10 log of IC50, unit nM.

These recorded examples may help you get a feel for the data.
• Cc1nc(-c2cc(-c3cnn([C@]4(CC#N)C[C@@H](C#N)C4)n3)c3cccnc3c2)ccc1CCO = 2.73
• CS(=O)(=O)Nc1ccc(-c2cc(-c3cnn(C4(CC#N)CC(C#N)C4)n3)c3cccnc3c2)nc1 (stereo not drawn) [Example 374] = 1.40
• CS(=O)(=O)N1CC(CC#N)(n2ncc(-c3cc(-c4ccc(O)cc4)cc4ncccc34)n2)C1 = 2.78

Batch request: log10 of IC50 for each of the following compounds.
1. N#CC[C@]1(n2ncc(-c3cc(-c4cnc5c(N)nccn45)cc4ncccc34)n2)C[C@@H](C#N)C1
2. N#CC[C@]1(n2cc(-c3cc(-c4c[nH]nc4N)cc4nccn34)cn2)C[C@@H](C#N)C1
3. N#CC[C@]1(n2ncc(-c3cc(-c4ccc(N)nn4)cc4ncccc34)n2)C[C@@H](C#N)C1
4. CC(=O)Nc1cccc(-c2cc(-c3cnn([C@]4(CC#N)C[C@@H](C#N)C4)n3)c3cccnc3c2)n1
5. N#CC[C@]1(n2cc(-c3cc(-c4ccc(N)nc4)cc4nccn34)cn2)C[C@@H](C#N)C1
6. CS(=O)(=O)N1CC(CC#N)(n2cnc(-c3cc(-c4cn[nH]c4)cc4ncccc34)n2)C1
7. N#CC[C@]1(n2ncc(-c3cc(-c4cncnc4)cc4ncccc34)n2)C[C@@H](C#N)C1

1. 3.16
2. 3.10
3. 1.83
4. 2.19
5. 3.02
6. 3.50
7. 3.99

Query (compound): "N#CC[C@]1(n2ncc(-c3cc(-c4cc(C(N)=O)c(F)cn4)cc4ncccc34)n2)C[C@H](C#N)C1" ; field requested: log10 of IC50
3.83

====

target-system: JAK3 (Homo sapiens (Human))
experiment: JAK Caliper Enzyme Assay at 1 mM ATP, JAK3
Type: biochemical
condition-description: JAK Caliper enzyme assay
endpoint: IC50

Some compounds with recorded IC50:
* N#CC[C@]1(n2ncc(-c3cc(-c4cnn5cccnc45)cc4ncccc34)n2)C[C@H](C#N)C1 | > 10 µM
* N#CC[C@]1(n2ncc(-c3cc(-c4cc(C(N)=O)c(F)cn4)cc4ncccc34)n2)C[C@@H](C#N)C1 | > 10 µM
* Cn1cc(-c2cc(-c3cnn(C4(CC#N)CC(C#N)C4)n3)n3ccnc3c2)cn1 (stereo not drawn) | > 10 µM

Items follow; give IC50 for each.
1. N#CC[C@]1(n2ncc(-c3cc(-c4ccc(OCCN)cc4)cc4ncccc34)n2)C[C@H](C#N)C1
2. N#CCC1(n2ncc(-c3cc(-c4ncccn4)cc4ncccc34)n2)CC(C#N)C1 (stereo not drawn)
3. Cc1nc2ccc(-c3cc(-c4cnn([C@]5(CC#N)C[C@H](C#N)C5)n4)c4cccnc4c3)nc2[nH]1

["> 10 µM", "> 10 µM", "9.36 µM"]

Quick request: IC50 for each listed item, please.
1. CO[C@H]1C[C@@](CC#N)(n2cc(-c3cc(-c4cnn(C)c4)cc4nccn34)cn2)C1
2. Cn1cc(-c2cn3ncnc3c(-c3cnn(C4(CC#N)CN(CC#N)C4)c3)n2)cn1
3. CS(=O)(=O)Nc1ccc(-c2cc(-c3cnn(C4(CC#N)CC(C#N)C4)n3)c3cccnc3c2)nc1 (stereo not drawn) [Example 375]
4. CS(=O)(=O)Nc1cccc(-c2cc(-c3cnn(C4(CC#N)CC(C#N)C4)n3)c3cccnc3c2)n1 (stereo not drawn) [Example 373]
5. Cc1ncc(-c2cc(-c3cnn([C@]4(CC#N)C[C@H](C#N)C4)c3)n3ccnc3c2)[nH]1
6. Cc1nc(-c2cc(-c3cnn([C@]4(CC#N)C[C@H](C#N)C4)n3)c3cccnc3c2)ccc1CCO
7. N#CC[C@]1(n2ncc(-c3cc(-c4cncnc4)cc4ncccc34)n2)C[C@@H](C#N)C1

1. > 10 µM
2. > 10 µM
3. > 10 µM
4. > 10 µM
5. > 10 µM
6. 9.5 µM
7. > 10 µM

For each listed entry, give its IC50.
1. CC(=O)Nc1cccc(-c2cc(-c3cnn(C4(CC#N)CC(C#N)C4)n3)c3cccnc3c2)n1 (stereo not drawn)
2. N#CC[C@]1(n2cc(-c3cc(-c4c[nH]nc4N)cc4nccn34)cn2)C[C@@H](C#N)C1

["1.35 µM", "> 10 µM"]

====

target-system: TYK2 (Homo sapiens (Human), UniProt P29597)
Sequence (P29597 897-1176): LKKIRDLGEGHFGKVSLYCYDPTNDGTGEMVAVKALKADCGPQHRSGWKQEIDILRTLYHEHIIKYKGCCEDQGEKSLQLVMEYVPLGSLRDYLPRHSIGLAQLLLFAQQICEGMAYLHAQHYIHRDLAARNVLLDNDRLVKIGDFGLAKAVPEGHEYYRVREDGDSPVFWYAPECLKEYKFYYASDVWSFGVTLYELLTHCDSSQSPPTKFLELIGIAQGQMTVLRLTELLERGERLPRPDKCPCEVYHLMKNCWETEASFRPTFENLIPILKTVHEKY
experiment: JAK Caliper Enzyme Assay at 1 mM ATP, TYK2
Type: biochemical
Could you please report measured IC50 for the items listed next?
Give bare numbers, in nM.

// worked examples, IC50 included
- CS(=O)(=O)N1CC(CC#N)(n2ccc(-c3cc(-c4cn[nH]c4)cc4ncccc34)n2)C1: 171
- N#CCC1(n2ccc(-c3nc(-c4nc(CO)cs4)cc4ncccc34)n2)CC(C#N)C1 (stereo not drawn): 119

Need IC50 for each of these molecules.
1. CS(=O)(=O)N1CC(CC#N)(n2ccc(-c3nc(-c4cnc5c(c4)NCCN5)cc4ncccc34)n2)C1
2. Cc1nc(-c2cc3ncccc3c(-c3ccn(C4(CC#N)CN(CC(F)(F)F)C4)n3)n2)c[nH]1
3. CS(=O)(=O)Nc1cncc(-c2cc3ncccc3c(-c3ccn(C4(CC#N)CN(S(C)(=O)=O)C4)n3)n2)c1
4. N#CC[C@]1(n2ccc(-c3nc(-c4cn[nH]c4CO)cc4ncccc34)n2)C[C@H](C#N)C1
5. CNc1cc(-c2cc3ncccc3c(-c3ccn([C@]4(CC#N)C[C@H](C#N)C4)n3)n2)nn1C
6. N#CCC1(n2ccc(-c3nc(-c4cc5n(n4)CCNC5)cc4ncccc34)n2)CC(C#N)C1 (stereo not drawn)
7. CNC(=O)[C@H]1C[C@](CC#N)(n2ccc(-c3nc(-c4ccn[nH]4)cc4ncccc34)n2)C1
8. CS(=O)(=O)N1CC(CC#N)(n2ccc(-c3nc(-c4ccc(O)c(F)c4)cc4ncccc34)n2)C1

1: 56; 2: 290; 3: 799; 4: 34; 5: 158; 6: 28; 7: 7560; 8: 27
